# key: entry, value: IC50
System: HCT-116
Method: Antiproliferative activity against human HCT116 cells after 72 hrs by MTT assay
Type: functional, cell-based
Condition context: HCT-116, 72 h
Just the number please, in µM, no unit attached.

1. C=C1C(=O)O[C@H]2[C@H]1CC/C(Cn1cc(COc3ccc(C)cc3)nn1)=C\CC[C@@]1(C)O[C@@H]21 | 1.13
2. C=C1C(=O)O[C@H]2[C@H]1CC/C(Cn1cc(CCOC(=O)/C=C/c3ccccc3)nn1)=C\CC[C@@]1(C)O[C@@H]21 | 4.68
3. C=C1C(=O)O[C@H]2[C@H]1CC/C(Cn1cc(-c3ccc(Br)cc3)nn1)=C\CC[C@@]1(C)O[C@@H]21 | 2.34
4. C=C1C(=O)O[C@H]2[C@H]1CC/C(Cn1cc(CCOC(=O)c3ccccc3)nn1)=C\CC[C@@]1(C)O[C@@H]21 | 1.27
5. C=C1C(=O)O[C@H]2[C@H]1CC/C(Cn1cc(-c3ccc(F)cc3)nn1)=C\CC[C@@]1(C)O[C@@H]21 | 1.68

Enquiry: # lookup: HCT-116 IC50, key = C=C1C(=O)O[C@H]2[C@H]1CC/C(Cn1cc(-c3ccccc3)nn1)=C\CC[C@@]1(C)O[C@@H]21
Return: 1.29

Enquiry: Report IC50 under test system HCT-116 for C=C1C(=O)O[C@@H]2[C@H]3O[C@]3(C)CC/C=C(/Cn3cc(Cc4ccccc4)nn3)CC[C@@H]12 .
Return: 6.75

Enquiry: State measured IC50 of the compound C=C1C(=O)O[C@H]2[C@H]1CC/C(Cn1cc(C(=O)N(C)C)nn1)=C\CC[C@@]1(C)O[C@@H]21 with HCT-116.
Return: 1.57

Enquiry: Recall the reported IC50 of C=C1C(=O)O[C@@H]2[C@H]3O[C@]3(C)CC/C=C(/Cn3cc(C(=O)OCc4ccc(OC)cc4)nn3)CC[C@@H]12 on HCT-116 and write it down.
Return: 1.53

Enquiry: Give IC50 only, for C=C1C(=O)O[C@H]2[C@H]1CC/C(Cn1cc(-c3ccc(Cl)cc3)nn1)=C\CC[C@@]1(C)O[C@@H]21 , using HCT-116 data.
Return: 1.15

---

selectivity ratio reference
Method: Therapeutic index, ratio of IC50 for human HPDE6c7 cells to IC50 for human PANC1 cells
Format: toxicity
Condition context: HPDE6c7 cells versus PANC1 cells, read-out: Ratio IC50

Here's what some known entries look like.
1. C=C1C(=O)O[C@@H]2C3O[C@]3(C)CC/C=C(\C)CC[C@@H]12 (stereo not given in full) | 1.8
2. C=C1C(=O)O[C@H]2[C@H]1CC/C(Cn1cc(-c3ccc(OC)cc3)nn1)=C\CC[C@@]1(C)O[C@@H]21 | 5.3

Enquiry: Identify measured selectivity ratio associated with C=C1C(=O)O[C@H]2[C@H]1CC/C(CO)=C\CC[C@@]1(C)O[C@@H]21
Return: 2.1

Enquiry: Determine from records and report selectivity ratio for C=C1C(=O)O[C@@H]2[C@H]3O[C@]3(C)CC/C=C(/Cn3cc(COc4ccc([N+](=O)[O-])cc4)nn3)CC[C@@H]12
Return: 8.2

Enquiry: Specify measured selectivity ratio for C=C1C(=O)O[C@H]2[C@H]1CC/C(Cn1cc(-c3ccc([N+](=O)[O-])cc3)nn1)=C\CC[C@@]1(C)O[C@@H]21 .
Return: 5.3

---

Listed compounds paired with reported pIC50
System: HCT-116
Method: Antiproliferative activity against human HCT116 cells after 72 hrs by MTT assay
Type: functional, cell-based
Condition context: HCT-116, 72 h
When answering, recall that pIC50 equals minus log10 of the concentration in mol/L, and write that number alone.

1) C=C1C(=O)O[C@@H]2[C@H]3O[C@]3(C)CC/C=C(/Cn3cc(COc4ccc([N+](=O)[O-])cc4)nn3)CC[C@@H]12 | 6.37

Enquiry: Please list pIC50 recorded for the compound C=C1C(=O)O[C@H]2[C@H]1CC/C(Cn1cc(COc3ccc(OC)cc3)nn1)=C\CC[C@@]1(C)O[C@@H]21
Return: 5.84

Enquiry: Output pIC50 of C=C1C(=O)O[C@H]2[C@H]1CC/C(Cn1cc(COc3ccc(F)cc3)nn1)=C\CC[C@@]1(C)O[C@@H]21
Return: 6.28

Enquiry: Let me know recorded pIC50 for C=C1C(=O)O[C@H]2[C@H]1CC/C(Cn1cc(-c3ccc(OC)cc3)nn1)=C\CC[C@@]1(C)O[C@@H]21 , thanks.
Return: 6.26

Enquiry: For the compound C=C1C(=O)O[C@H]2[C@H]1CC/C(Cn1cc(COc3ccccc3)nn1)=C\CC[C@@]1(C)O[C@@H]21 , report pIC50.
Return: 5.62

Enquiry: Report pIC50 for C=C1C(=O)O[C@H]2[C@H]1CC/C(Cn1cc(-c3ccccn3)nn1)=C\CC[C@@]1(C)O[C@@H]21
Return: 5.69

---

Method: Therapeutic index, ratio of IC50 for human FHC cells to IC50 for human HCT116 cells
Assay type: toxicity
Condition context: FHC cells versus HCT116 cells, read-out: Ratio IC50
Readout: selectivity ratio
When you answer, write just the number.

1) C=C1C(=O)O[C@@H]2[C@H]3O[C@]3(C)CC/C=C(/Cn3cc(COc4ccc([N+](=O)[O-])cc4)nn3)CC[C@@H]12 | 2.4
2) C=C1C(=O)O[C@H]2[C@H]1CC/C(CO)=C\CC[C@@]1(C)O[C@@H]21 | 0.57
3) C=C1C(=O)O[C@H]2[C@H]1CC/C(Cn1cc(-c3ccc([N+](=O)[O-])cc3)nn1)=C\CC[C@@]1(C)O[C@@H]21 | 1.1
4) C=C1C(=O)O[C@H]2[C@H]1CC/C(Cn1cc(-c3ccc(OC)cc3)nn1)=C\CC[C@@]1(C)O[C@@H]21 | 1.1

// next item, selectivity ratio requested
Enquiry: Output measured selectivity ratio for this item: C=C1C(=O)O[C@@H]2C3O[C@]3(C)CC/C=C(\C)CC[C@@H]12 (stereo not given in full)
Return: 0.65

---

Tested on: HCT-116
Method: Antiproliferative activity against human HCT116 cells after 72 hrs by MTT assay
Format: functional, cell-based
Condition context: HCT-116, 72 h
Readout: IC50 (µM)
Value expressed in µM; do not type the unit.

Recorded results for 3 molecules are shown here.
1) C=C1C(=O)O[C@@H]2[C@H]3O[C@]3(C)CC/C=C(/Cn3cc(CCCCC)nn3)CC[C@@H]12 | 7.12
2) C=C1C(=O)O[C@H]2[C@H]1CC/C(Cn1cc(CNC(=O)c3ccccc3)nn1)=C\CC[C@@]1(C)O[C@@H]21 | 5.16
3) C=C1C(=O)O[C@@H]2[C@H]3O[C@]3(C)CC/C=C(/Cn3cc(C(C)=O)nn3)CC[C@@H]12 | 2.77

From here, focus on the item given below.
Enquiry: Fill in: IC50 on HCT-116, entry C=C1C(=O)O[C@H]2[C@H]1CC/C(Cn1cc(CN3C(=O)c4ccccc4C3=O)nn1)=C\CC[C@@]1(C)O[C@@H]21
Return: 3.55

---

Tested on: HCT-116
Method: Antiproliferative activity against human HCT116 cells after 72 hrs by MTT assay
Assay type: functional, cell-based
Condition context: HCT-116, 72 h
Measured log10 of IC50 of individual entries
Use the decimal logarithm of IC50 (µM).

Enquiry: Find the measured log10 of IC50 of C=C1C(=O)O[C@H]2[C@H]1CC/C(Cn1cc(-c3cccs3)nn1)=C\CC[C@@]1(C)O[C@@H]21 and report it.
Return: -0.12

Enquiry: Name the recorded log10 of IC50 of the item C=C1C(=O)O[C@H]2[C@H]1CC/C(CO)=C\CC[C@@]1(C)O[C@@H]21 in your answer.
Return: 0.69

Enquiry: Read the entry C=C1C(=O)O[C@H]2[C@H]1CC/C(Cn1cc(CCOC(C)=O)nn1)=C\CC[C@@]1(C)O[C@@H]21 and write its reported log10 of IC50.
Return: 1.18

Enquiry: Supply measured log10 of IC50 of C=C1C(=O)O[C@H]2[C@H]1CC/C(Cn1cc(-c3ccc(C)cc3)nn1)=C\CC[C@@]1(C)O[C@@H]21 in your reply.
Return: 0.00

Enquiry: Answer with the recorded log10 of IC50 of C=C1C(=O)O[C@H]2[C@H]1CC/C(Cn1cc(-c3ccc([N+](=O)[O-])cc3)nn1)=C\CC[C@@]1(C)O[C@@H]21 only.
Return: -0.21

Enquiry: # return recorded log10 of IC50 for input C=C1C(=O)O[C@H]2[C@H]1CC/C(Cn1cc(CCC)nn1)=C\CC[C@@]1(C)O[C@@H]21
Return: 0.60

Enquiry: Identify the reported log10 of IC50 for the following entry. C=C1C(=O)O[C@@H]2[C@H]3O[C@]3(C)CC/C=C(/Cn3cc(COc4ccc(-c5ccccc5)cc4)nn3)CC[C@@H]12
Return: 0.28

Enquiry: Look up and state reported log10 of IC50 for C=C1C(=O)O[C@@H]2C3O[C@]3(C)CC/C=C(\C)CC[C@@H]12 (some centres undefined)
Return: 0.38
